assay: Metabolic stability in MDCK2 cells assessed as compound recovery at 5 uM; type: ADME, cell-based, Canis lupus familiaris, MDCK-II; details: dog, read-out: Stability
attribute.measured: remaining at 5 µM (%)
Provide only the numeric value, understood in %.

// query remaining at 5 µM value for entry CC(=O)N[C@@H](Cc1cc(F)cc(F)c1)[C@H](O)CNC1(c2cccc(C(C)(CF)CF)c2)CC1
78

Record: CC(=O)N[C@@H](Cc1cc(F)cc(F)c1)[C@H](O)CNC1(c2cccc(C(C)(C)C(F)F)c2)CC1
54

Record: C=C(c1cccc(C2(NC[C@@H](O)[C@H](Cc3cc(F)cc(F)c3)NC(C)=O)CC2)c1)C(F)(F)F
66

* * *

target: Beta-secretase 1 (Homo sapiens); experiment: Inhibition of recombinant BACE1 purified from Escherichia coli
Sequence (P56817 whole entry): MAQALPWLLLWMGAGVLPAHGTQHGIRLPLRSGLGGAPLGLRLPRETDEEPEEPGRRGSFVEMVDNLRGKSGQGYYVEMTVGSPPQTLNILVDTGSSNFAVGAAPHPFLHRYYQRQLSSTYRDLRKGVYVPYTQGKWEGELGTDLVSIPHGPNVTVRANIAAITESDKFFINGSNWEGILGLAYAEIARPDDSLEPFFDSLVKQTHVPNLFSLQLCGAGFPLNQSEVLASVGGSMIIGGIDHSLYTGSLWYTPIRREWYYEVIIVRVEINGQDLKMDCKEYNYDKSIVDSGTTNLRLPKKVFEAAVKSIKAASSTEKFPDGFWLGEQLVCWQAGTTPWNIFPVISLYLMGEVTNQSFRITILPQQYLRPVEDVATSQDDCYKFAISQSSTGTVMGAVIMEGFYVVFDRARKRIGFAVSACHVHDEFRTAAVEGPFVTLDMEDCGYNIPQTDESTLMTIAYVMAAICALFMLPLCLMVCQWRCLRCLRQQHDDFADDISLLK
attribute.measured: pIC50
Please report pIC50 as the negative decimal logarithm of the molar concentration, giving only the number.

// query pIC50 value for entry CC(=O)N[C@@H](Cc1cc(F)cc(F)c1)[C@H](O)CNC1(c2cccc(C(C)(C)C(F)F)c2)CC1
6.64

Record: C=C(c1cccc(C2(NC[C@@H](O)[C@H](Cc3cc(F)cc(F)c3)NC(C)=O)CC2)c1)C(F)(F)F
5.89

Record: CC(=O)N[C@@H](Cc1cc(F)cc(F)c1)[C@H](O)CNC(C)(C)c1cccc(C(C)(C)C)c1
6.70

Record: CC(=O)N[C@@H](Cc1cc(F)cc(F)c1)[C@H](O)CNC1(c2cccc(C(C)(C)C)c2)CCC1
6.21

Record: CC(=O)N[C@@H](Cc1cc(F)cc(F)c1)[C@H](O)CNC1(c2cccc(C3CCOC3)c2)CC1 (stereo partly drawn)
6.12

Record: CC(=O)N[C@@H](Cc1cc(F)cc(F)c1)[C@H](O)CNC1(c2cccc(C(C)(CF)CF)c2)CC1
6.41

Record: CC(=O)N[C@@H](Cc1cc(F)cc(F)c1)[C@H](O)CNC1(c2cccc(-n3cccn3)c2)CCOCC1
6.96

Record: CC(=O)N[C@@H](Cc1cc(F)cc(F)c1)[C@H](O)CNCc1cccc(C(C)(C)C)c1
5.89

* * *

experiment: Efflux ratio of permeability from basolateral to apical side over apical to basolateral side in MDR1 transfected MDCK2 cells at 5 uM after 2 hrs; format: ADME, cell-based, Canis lupus familiaris; conditions: dog, mdck-ii
Note to self: Ratio under 2 means 1 (yes), ties and anything higher get 0 (no).

Say whether its Ratio is strictly beneath 2. Entry: CC(=O)N[C@@H](Cc1cc(F)cc(F)c1)[C@H](O)CNC1(c2cccc(C(C)(C)C(F)F)c2)CC1
1 (yes)

Record: CC(=O)N[C@@H](Cc1cc(F)cc(F)c1)[C@H](O)CNC1(c2cccc(-n3cccn3)c2)CCOCC1
0 (no)

Record: CC(=O)N[C@@H](Cc1cc(F)cc(F)c1)[C@H](O)CNC1(c2cccc(C(C)(C)CF)c2)CC1
1 (yes)

Record: CC(=O)N[C@@H](Cc1cc(F)cc(F)c1)[C@H](O)CNC1(c2cccc(-n3cccn3)c2)CC1
0 (no)

Record: C=C(c1cccc(C2(NC[C@@H](O)[C@H](Cc3cc(F)cc(F)c3)NC(C)=O)CC2)c1)C(F)(F)F
1 (yes)

Record: CC(=O)N[C@@H](Cc1cc(F)cc(F)c1)[C@H](O)CNC1(c2cccc(C(C)(C)C)c2)CC1
1 (yes)

Record: CC(=O)N[C@@H](Cc1cc(F)cc(F)c1)[C@H](O)CNC1(c2cccc(C(C)(CF)CF)c2)CC1
1 (yes)

* * *

assay: Lipophilicity, log P of the compound at pH 7.4; assay type: physicochemical; settings: buffer
attribute.measured: logD
# respond with the number and nothing more

// query logD value for entry CC(=O)N[C@@H](Cc1cc(F)cc(F)c1)[C@H](O)CNC1(c2cccc(C(C)(C)C(F)F)c2)CC1
4

Record: CC(=O)N[C@@H](Cc1cc(F)cc(F)c1)[C@H](O)CNC1(c2cc(C(C)(C)C)ncn2)CCCCC1
3.7

Record: CC(=O)N[C@@H](Cc1cc(F)cc(F)c1)[C@H](O)CNC1(c2cnn(CC(C)(C)C)c2)CC1
3

Record: CC(=O)N[C@@H](Cc1cc(F)cc(F)c1)[C@H](O)CNC1(c2cccc(C3CCOC3)c2)CCCCC1 (stereo partly drawn)
4

Record: CC(=O)N[C@@H](Cc1cc(F)cc(F)c1)[C@H](O)CNC1(c2cccc(C(C)(C)CF)c2)CC1
4.1

Record: CC(=O)N[C@@H](Cc1cc(F)cc(F)c1)[C@H](O)CNC1(c2cccc(C3CCOC3)c2)CC1 (stereo partly drawn)
3.1

Record: CC(=O)N[C@@H](Cc1cc(F)cc(F)c1)[C@H](O)CNCc1cccc(C(C)(C)C)c1
4.1

Record: CC(=O)N[C@@H](Cc1cc(F)cc(F)c1)[C@H](O)CNC1(c2cccc(C(C)(C)C)c2)CCC1
4.6
